ASSAY SUMMARY: binders of probe aFGF10 on microarray, primary screen, stem cell growth factor project, biochemical, small-molecule microarray, fluorescence 635/667 (AID 1071);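 note: score merges 667 nm spot intensity and signal to noise from triplicate slides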
APPLIED CONDITIONS: higher = more signal
Lab note: anything with composite z-score at or over 0.6 counts as Met; the rest go in Not met.

INSERT INTO assay_data (molecule, assigned_label) VALUES
  ('O=C(NCCO)C1=C[C@H](Oc2ccccc2I)[C@@H](O)[C@H](N(Cc2ccco2)C(=O)Cc2ccccc2)C1', 'Not met'),
  ('COc1cc2c(cc1OC)CN(C(=O)[C@H]1[C@@H]3C(=O)O[C@@H](c4ccccc4)[C@@H](c4ccccc4)N3[C@@H](c3ccc(O)cc3)[C@]13C(=O)Nc1ccccc13)CC2', 'Met'),
  ('CC(C)NC(=O)[C@@]1(c2ccc([N+](=O)[O-])cc2)CC(=O)N(C2CCCCC2)[C@@H]1c1ccc(CO)cc1I', 'Not met'),
  ('O=C(N1CCCCC1)[C@]1(Cc2ccccc2)N=C(c2ccc(OCCCO)cc2)O[C@@H]1c1ccccc1', 'Not met'),
  ('COc1cc(NN2C(C(O)c3ccco3)C=CC3C(=O)N(c4ccccc4)C(=O)C32)cc(OC)c1OC (centres undefined)', 'Not met'),
  ('C=C(COC)/C(=C/C[C@H](OC(C)=O)c1ccc(CO)o1)c1cc(C(=O)OC)ccc1OC', 'Met'),
  ('O=C1C[C@@](C(=O)NCCN2CCOCC2)(c2ccc([N+](=O)[O-])cc2)[C@@H](c2ccc(CO)cc2I)N1CC12CC3CC(CC(C3)C1)C2', 'Not met'),
  ('C=C[C@H](CO)NS(=O)(=O)c1ccc(Br)cc1', 'Not met');

Q: For this molecule, is measured composite z-score 0.6 or higher? C=CCNC(=O)[C@@H]1[C@H]2C(=O)O[C@H](c3ccccc3)[C@H](c3ccccc3)N2[C@H](c2ccc(OCCO)cc2)[C@@]12C(=O)Nc1ccc(C#CCC(C(=O)OC)C(=O)OC)cc12
A: Met

Q: Quick check, composite z-score >= 0.6? C=C(CCCC)/C(=C/C[C@H](OC(=O)c1ccncc1)c1ccccc1OCCO)c1cnc2ccccc2c1
A: Met

Q: Please check the record [N-]=[N+]=Nc1ccccc1[C@H]1OC(c2ccc(OCCCO)cc2)=N[C@@]1(CCS(=O)(=O)c1ccccc1)C(N)=O and state if its composite z-score is at or above 0.6.
A: Met

Q: Please tell me: is the molecule COCCOC(=O)N1C(=O)[C@@]2(c3ccccc31)[C@H](C(=O)N1CCc3cc(OC)c(OC)cc3C1)[C@H]1C(=O)O[C@H](c3ccccc3)[C@H](c3ccccc3)N1[C@@H]2c1ccc(OCCO)cc1 at or over 0.6 in terms of composite z-score?
A: Not met

Q: # check: composite z-score of C=CCOC(=O)[C@H]1[C@@H]2C(=O)O[C@@H](c3ccccc3)[C@@H](c3ccccc3)N2[C@@H](c2ccc(OCCOC(=O)[C@H]3C[C@H]4C(=O)N[C@@H](CCCCNC(C)=O)C(=O)N4[C@H]3c3ccc(O)cc3)cc2)[C@]12C(=O)Nc1ccc(I)cc12 is greater than or equal to 0.6
A: Not met

Q: For this molecule, is measured composite z-score 0.6 or higher? CN(C)CCCC[C@@H]1NC(=O)[C@@H]2C[C@H](C(=O)NCCCCCCN)[C@H](c3cccc(OCCO)c3)N2C1=O
A: Met

# credit: PubChem BioAssay
